# System: Escherichia coli
# test_protocol: Compound was evaluated for the inhibition of Escherichia coli TEM-1 enzyme
# Type: functional, organism-based

compound: C[C@]12C[C@@]1(C(=O)O)N1C(=O)C[C@H]1S2(=O)=O
IC50, µM: 2.5

compound: C[C@@]12C[C@]1(C(=O)O)N1C(=O)C[C@H]1S2(=O)=O
IC50, µM: 406

compound: CC1(C)[C@H](C(=O)O)N2C(=O)C[C@H]2S1(=O)=O [SULBACTAM]
IC50, µM: 1.9
